Origin of the recorded values: patent US20260265248A1

Target: PD-1/PD-L1 (Homo sapiens)
Construct: purchased CisBio
Sequence (Q9NZQ7 19-238 limits assumed): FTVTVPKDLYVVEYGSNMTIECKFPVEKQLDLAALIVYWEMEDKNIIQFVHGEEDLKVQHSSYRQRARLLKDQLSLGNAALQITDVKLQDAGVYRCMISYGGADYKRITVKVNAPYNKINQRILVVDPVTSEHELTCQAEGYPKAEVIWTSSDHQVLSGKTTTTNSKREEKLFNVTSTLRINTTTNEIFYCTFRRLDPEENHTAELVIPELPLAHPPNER
Assay: PD1-PDL1 HTRF assay
Conditions: PD-1/PD-L1 homogenous time-resolved fluorescence (HTRF) binding assay; Tag1-PDL1 5 nM, Tag2-PD1 50 nM
assayReadout: IC50

stdin: Field request: IC50 | item: COc1cc(-c2cnc3cc(-c4cccc(-c5ccc6c(c5)OCCO6)c4C)ccn23)cc(OC)c1CN1CCC[C@H]1C(=O)O
stdout: 0.1 to 1 µM

stdin: Check Cc1c(Nc2nccc3cc(CN4CC[C@@H](O)C4)cnc23)cccc1-c1cccc(-c2ccn3c(-c4ccc(CNC[C@@H]5CCC(=O)N5)cc4)nnc3c2)c1C too.
stdout: ≤ 0.01 µM

stdin: What would you report for CC(=O)NCCNCc1ccc(-c2cccc(-c3cccc(-c4ccn5nc(CNCCNC(C)=O)nc5c4)c3Cl)c2Cl)cc1 ?
stdout: ≤ 0.01 µM

stdin: Repeat with Cc1c(-c2ccccc2)cccc1-c1ccn2c(-c3ccc(CN4CCC[C@@H]4C(=O)O)cc3)nnc2c1
stdout: 0.01 to 0.1 µM

stdin: Same question for Cc1c(-c2ccccc2)cccc1-c1ccn2c(-c3ccc(CN4CCC[C@@H]4CO)cc3)cnc2c1 please.
stdout: 0.1 to 1 µM

stdin: Another molecule to check: Cc1c(-c2ccccc2)cccc1-c1ccn2c(-c3ccc(CNC4(C(=O)O)CCC4)cc3)cnc2c1
stdout: 0.1 to 1 µM

stdin: Now this one: Cc1c(-c2ccccc2)cccc1-c1ccn2c(-c3ccc(CNCC(O)CC(=O)O)cc3)nnc2c1 (centres unmarked)
stdout: 0.1 to 1 µM

stdin: Item: Cc1c(Nc2nccc3cc(CN4CC[C@@H](O)C4)cnc23)cccc1-c1cccc(-c2ccn3c(-c4ccc(CN5CCC[C@@H]5C(=O)O)cc4)nnc3c2)c1C
stdout: ≤ 0.01 µM

stdin: Follow-up entry: Cc1c(-c2ccccc2)cccc1-c1ccn2c(-c3ccc(CNCCCO)cc3)cnc2c1
stdout: 0.1 to 1 µM

stdin: Queued: Cc1c(-c2ccc(CNCCO)cc2)cccc1-c1cccc(-c2ccn3c(-c4ccc(CNCCO)cc4)nnc3c2)c1C
stdout: 0.01 to 0.1 µM

stdin: What do we get for Cc1c(NC(=O)c2ccc(CNCCO)cn2)cccc1-c1cccc(-c2ccn3c(-c4ccc(CNCCO)cc4)nnc3c2)c1C ?
stdout: ≤ 0.01 µM

stdin: Another: OCCNCc1ccc(-c2cccc(-c3cccc(-c4ccn5nc(CNCCO)nc5c4)c3Cl)c2Cl)cc1
stdout: ≤ 0.01 µM

stdin: Similarly, Cc1c(-c2ccccc2)cccc1-c1ccn2c(C#CCN3CCC[C@@H]3C(=O)O)cnc2c1 ?
stdout: 0.1 to 1 µM

stdin: Same question for Cc1c(-c2ccc3c(c2)OCCO3)cccc1-c1ccn2c(-c3ccc(CN4C[C@@H](C(=O)O)C[C@H]4O)cc3)cnc2c1 please.
stdout: 0.1 to 1 µM
